Values from ChEMBL document CHEMBL6092220

# experimental_details: Drug concentration in female CB17 SCID mouse spleen at 5 mg/kg, iv measured at 48 hrs by LC-MS/MS analysis
# Assay type: ADME, organism-based
# condition_info: read-out: Ct

[
  {
    "compound": "COC(=O)N1CC[C@H]2CC[C@@H](C(=O)N[C@@H](CCC(N)=O)C(=O)N[C@@H](Cc3ccc(F)c(F)c3)C(=O)N3CCC(CCC#Cc4cccc5c4CN(C4CCC(=O)NC4=O)C5=O)CC3)N2C(=O)[C@@H](NC(=O)c2cc3cc(C(F)(F)P(=O)(O)O)ccc3s2)C1 (stereo partly specified)",
    "concentration at 48 h (ng/g)": 615
  }
]

* * *

# subject_of_test: Protein cereblon/Signal transducer and activator of transcription 3 (Homo sapiens, UniProt P40763+Q96SW2)
# experimental_details: PROTAC activity at his-SUMO-tagged STAT3 (127 to 688 residues)/CRBN in human HeLa cells assessed as induction of STAT3 degradation incubated for 24 hrs by TECAN SPARK microplate reader analysis relative to control
# Format: cell-based

[
  {
    "molecule": "CN1CC[C@H]2CC[C@@H](C(=O)N[C@@H](CCC(N)=O)C(=O)N[C@H](C(=O)NCCCCCCCC#Cc3cccc4c3CN(C3CCC(=O)NC3=O)C4=O)c3ccccc3)N2C(=O)[C@@H](NC(=O)c2cc3cc(C(F)(F)P(=O)(O)O)ccc3s2)C1 (stereo not given in full)",
    "reading_unit": "%",
    "Emax": 52
  },
  {
    "molecule": "CN1CC[C@H]2CC[C@@H](C(=O)N[C@@H](CCC(N)=O)C(=O)N[C@H](CCC(=O)N3CCC(C#Cc4cccc5c4CN(C4CCC(=O)NC4=O)C5)CC3)c3ccccc3)N2C(=O)[C@@H](NC(=O)c2cc3cc(C(F)(F)P(=O)(O)O)ccc3s2)C1 (stereo not given in full)",
    "reading_unit": "%",
    "Emax": 31
  },
  {
    "molecule": "CN1CC[C@H]2CC[C@@H](C(=O)N[C@@H](CCC(N)=O)C(=O)N[C@@H](C(=O)N3CCC(CCC#Cc4cccc5c4CN(C4CCC(=O)NC4=O)C5=O)CC3)C(C)(C)C)N2C(=O)[C@@H](NC(=O)c2cc3cc(C(F)(F)P(=O)(O)O)ccc3s2)C1 (stereo not given in full)",
    "reading_unit": "%",
    "Emax": 80
  },
  {
    "molecule": "CN1CC[C@H]2CC[C@@H](C(=O)N[C@@H](CCC(N)=O)C(=O)N[C@@H](Cc3ccccc3)C(=O)N3CCC(CCC#Cc4cccc5c4CN(C4CCC(=O)NC4=O)C5=O)CC3)N2C(=O)[C@@H](NC(=O)c2cc3cc(C(F)(F)P(=O)(O)O)ccc3s2)C1 (stereo not given in full)",
    "reading_unit": "%",
    "Emax": 94
  },
  {
    "molecule": "CN1CC[C@H]2CC[C@@H](C(=O)N[C@@H](CCC(N)=O)C(=O)N[C@@H](C(=O)NCCCCCCCCC#Cc3cccc4c3CN(C3CCC(=O)NC3=O)C4=O)c3ccccc3)N2C(=O)[C@@H](NC(=O)c2cc3cc(C(F)(F)P(=O)(O)O)ccc3s2)C1 (stereo not given in full)",
    "reading_unit": "%",
    "Emax": 60
  }
]

* * *

# experimental_details: Clearance in Sprague-Dawley rat at 5 mg/kg, iv
# Type: ADME, organism-based
# condition_info: in vivo

[
  {
    "compound": "CC(=O)N1CC[C@H]2CC[C@@H](C(=O)N[C@@H](CCC(N)=O)C(=O)N[C@@H](Cc3ccc(F)c(F)c3)C(=O)N3CCC(CCC#Cc4cccc5c4CN(C4CCC(=O)NC4=O)C5=O)CC3)N2C(=O)[C@@H](NC(=O)c2cc3cc(C(F)(F)P(=O)(O)O)ccc3s2)C1 (stereo partly specified)",
    "clearance (mL/min/kg)": 4
  }
]

* * *

Measured Vd of individual entries
# experimental_details: Apparent volume of distribution in Beagle dog at 1 mg/kg, iv
# Assay type: ADME, organism-based, Canis lupus familiaris
# condition_info: in vivo, read-out: Vz

[
  {
    "molecule": "CC(=O)N1CC[C@H]2CC[C@@H](C(=O)N[C@@H](CCC(N)=O)C(=O)N[C@@H](Cc3ccc(F)c(F)c3)C(=O)N3CCC(CCC#Cc4cccc5c4CN(C4CCC(=O)NC4=O)C5=O)CC3)N2C(=O)[C@@H](NC(=O)c2cc3cc(C(F)(F)P(=O)(O)O)ccc3s2)C1 (some centres not stated)",
    "Vd": "0.24 L/kg"
  },
  {
    "molecule": "COC(=O)N1CC[C@H]2CC[C@@H](C(=O)N[C@@H](CCC(N)=O)C(=O)N[C@@H](Cc3ccc(F)c(F)c3)C(=O)N3CCC(CCC#Cc4cccc5c4CN(C4CCC(=O)NC4=O)C5=O)CC3)N2C(=O)[C@@H](NC(=O)c2cc3cc(C(F)(F)P(=O)(O)O)ccc3s2)C1 (some centres not stated)",
    "Vd": "0.29 L/kg"
  }
]

* * *

# experimental_details: Stability in human plasma assessed as parent compound remaining at […]
# Type: ADME, cell-free
# condition_info: read-out: Stability

[
  {
    "compound": "COC(=O)N1CC[C@H]2CC[C@@H](C(=O)N[C@@H](CCC(N)=O)C(=O)N[C@@H](Cc3ccc(F)c(F)c3)C(=O)N3CCC(CCC#Cc4cccc5c4CN(C4CCC(=O)NC4=O)C5=O)CC3)N2C(=O)[C@@H](NC(=O)c2cc3cc(C(F)(F)P(=O)(O)O)ccc3s2)C1 (stereo partly specified)",
    "reading_unit": "%",
    "remaining at 2 h": 75
  }
]

* * *

# subject_of_test: Protein cereblon/Signal transducer and activator of transcription 3 (Homo sapiens, UniProt P40763+Q96SW2)
# experimental_details: PROTAC activity at his-SUMO-tagged STAT3 (127 to 688 residues)/CRBN in human HeLa cells assessed as induction of STAT3 degradation incubated for 24 hrs by TECAN SPARK microplate reader analysis relative to control
# Type: cell-based
Label scheme for Emax: lower than 70% is 0, 70% and above is 1.

[
  {
    "compound": "NC(=O)CC[C@H](NC(=O)[C@@H]1CC[C@@H]2CCNC[C@H](NC(=O)c3cc4cc(C(F)(F)P(=O)(O)O)ccc4s3)C(=O)N21)C(=O)N[C@@H](Cc1ccc(F)c(F)c1)C(=O)N1CCC(CCC#Cc2cccc3c2CN(C2CCC(=O)NC2=O)C3=O)CC1 (stereo partly specified)",
    "group": 1
  },
  {
    "compound": "CN1CC[C@H]2CC[C@@H](C(=O)N[C@@H](CCC(N)=O)C(=O)N[C@H](CC(=O)N3CCC(C#Cc4cccc5c4CN(C4CCC(=O)NC4=O)C5)CC3)c3ccccc3)N2C(=O)[C@@H](NC(=O)c2cc3cc(C(F)(F)P(=O)(O)O)ccc3s2)C1 (stereo partly specified)",
    "group": 0
  },
  {
    "compound": "CN1CC[C@H]2CC[C@@H](C(=O)N[C@@H](CCC(N)=O)C(=O)N[C@H](C(=O)NCCCC#Cc3cccc4c3CN(C3CCC(=O)NC3=O)C4=O)c3ccccc3)N2C(=O)[C@@H](NC(=O)c2cc3cc(C(F)(F)P(=O)(O)O)ccc3s2)C1 (stereo partly specified)",
    "group": 0
  },
  {
    "compound": "NC(=O)CC[C@H](NC(=O)[C@@H]1CC[C@@H]2CCN(C(=O)CCCCCC#Cc3cccc4c3CN(C3CCC(=O)NC3=O)C4=O)C[C@H](NC(=O)c3cc4cc(C(=O)P(=O)(O)O)ccc4[nH]3)C(=O)N21)C(=O)NC(c1ccccc1)c1ccccc1 (stereo partly specified)",
    "group": 1
  },
  {
    "compound": "CN1CC[C@H]2CC[C@@H](C(=O)N[C@@H](CCC(N)=O)C(=O)N[C@](C)(C(=O)N3CCC(CCC#Cc4cccc5c4CN(C4CCC(=O)NC4=O)C5=O)CC3)c3ccccc3)N2C(=O)[C@@H](NC(=O)c2cc3cc(C(F)(F)P(=O)(O)O)ccc3s2)C1 (stereo partly specified)",
    "group": 0
  },
  {
    "compound": "CN1CC[C@H]2CC[C@@H](C(=O)N[C@@H](CCC(N)=O)C(=O)N[C@H](C(=O)N3CCN(CCC#Cc4cccc5c4CN(C4CCC(=O)NC4=O)C5=O)CC3)c3ccccc3)N2C(=O)[C@@H](NC(=O)c2cc3cc(C(F)(F)P(=O)(O)O)ccc3s2)C1 (stereo partly specified)",
    "group": 0
  },
  {
    "compound": "CN1CC[C@H]2CC[C@@H](C(=O)N[C@@H](CCC(N)=O)C(=O)N[C@@H](Cc3ccc(F)cc3)C(=O)N3CCC(CCC#Cc4cccc5c4CN(C4CCC(=O)NC4=O)C5=O)CC3)N2C(=O)[C@@H](NC(=O)c2cc3cc(C(F)(F)P(=O)(O)O)ccc3s2)C1 (stereo partly specified)",
    "group": 1
  },
  {
    "compound": "CN1CC[C@H]2CC[C@@H](C(=O)N[C@@H](CCC(N)=O)C(=O)N[C@H](C(=O)NCCCCCCCCCC#Cc3cccc4c3CN(C3CCC(=O)NC3=O)C4)c3ccccc3)N2C(=O)[C@@H](NC(=O)c2cc3cc(C(F)(F)P(=O)(O)O)ccc3s2)C1 (stereo partly specified)",
    "group": 0
  },
  {
    "compound": "CN1CC[C@H]2CC[C@@H](C(=O)N[C@@H](CCC(N)=O)C(=O)N[C@H](C(=O)NCCCCC#Cc3cccc4c3CN(C3CCC(=O)NC3=O)C4=O)c3ccccc3)N2C(=O)[C@@H](NC(=O)c2cc3cc(C(F)(F)P(=O)(O)O)ccc3s2)C1 (stereo partly specified)",
    "group": 0
  },
  {
    "compound": "CN1CC[C@H]2CC[C@@H](C(=O)N[C@@H](CCC(N)=O)C(=O)N[C@@H](C(=O)NCCCCCCC#Cc3cccc4c3CN(C3CCC(=O)NC3=O)C4=O)c3ccccc3)N2C(=O)[C@@H](NC(=O)c2cc3cc(C(F)(F)P(=O)(O)O)ccc3s2)C1 (stereo partly specified)",
    "group": 0
  },
  {
    "compound": "CN1CC[C@H]2CC[C@@H](C(=O)N[C@@H](CCC(N)=O)C(=O)N[C@H](C(=O)NCCCCCC#Cc3cccc4c3CN(C3CCC(=O)NC3=O)C4=O)c3ccccc3)N2C(=O)[C@@H](NC(=O)c2cc3cc(C(F)(F)P(=O)(O)O)ccc3s2)C1 (stereo partly specified)",
    "group": 0
  },
  {
    "compound": "CN1CC[C@H]2CC[C@@H](C(=O)N[C@@H](CCC(N)=O)C(=O)N[C@H](C(=O)N3CCC(CCC#Cc4cccc5c4CN(C4CCC(=O)NC4=O)C5=O)CC3)C3CCCCC3)N2C(=O)[C@@H](NC(=O)c2cc3cc(C(F)(F)P(=O)(O)O)ccc3s2)C1 (stereo partly specified)",
    "group": 1
  },
  {
    "compound": "CN1CC[C@H]2CC[C@@H](C(=O)N[C@@H](CCC(N)=O)C(=O)N[C@H](C(=O)N3CCC(CCC#Cc4cccc5c4CN(C4CCC(=O)NC4=O)C5=O)CC3)c3ccccc3)N2C(=O)[C@@H](NC(=O)c2cc3cc(C(F)(F)P(=O)(O)O)ccc3s2)C1 (stereo partly specified)",
    "group": 1
  },
  {
    "compound": "CN1CC[C@H]2CC[C@@H](C(=O)N[C@@H](CCC(N)=O)C(=O)N[C@@H](Cc3ccc(F)c(F)c3)C(=O)N3CCC(CCC#Cc4cccc5c4CN(C4CCC(=O)NC4=O)C5=O)CC3)N2C(=O)[C@@H](NC(=O)c2cc3cc(C(F)(F)P(=O)(O)O)ccc3s2)C1 (stereo partly specified)",
    "group": 1
  },
  {
    "compound": "COC(=O)N1CC[C@H]2CC[C@@H](C(=O)N[C@@H](CCC(N)=O)C(=O)N[C@@H](Cc3ccc(F)c(F)c3)C(=O)N3CCC(CCC#Cc4cccc5c4CN(C4CCC(=O)NC4=O)C5=O)CC3)N2C(=O)[C@@H](NC(=O)c2cc3cc(C(F)(F)P(=O)(O)O)ccc3s2)C1 (stereo partly specified)",
    "group": 1
  },
  {
    "compound": "CN1CC[C@H]2CC[C@@H](C(=O)N[C@@H](CCC(N)=O)C(=O)NC3(C(=O)N4CCC(CCC#Cc5cccc6c5CN(C5CCC(=O)NC5=O)C6=O)CC4)CCCCC3)N2C(=O)[C@@H](NC(=O)c2cc3cc(C(F)(F)P(=O)(O)O)ccc3s2)C1 (stereo partly specified)",
    "group": 0
  }
]
